- COND: in methanol, 308.15 K
QUANTITY_KIND: solubility (mole fraction)
Just the number, please.

# solubility (mole fraction) (compound: `Nc1n[nH]c(=S)s1` ) is 0.00737

---

- COND: in methanol, 313.15 K
QUANTITY_KIND: solubility (mole fraction)
// return just the number, without any unit appended

Recorded solubility (mole fraction) (compound `Nc1n[nH]c(=S)s1` ): 0.00806

---

- COND: in methyl acetate, 313.15 K
QUANTITY_KIND: solubility (mole fraction)
Give your answer as a number; write no unit.

molecule `Nc1n[nH]c(=S)s1` , solubility (mole fraction) observed: 0.00361

---

- COND: in n-propanol, 288.15 K
QUANTITY_KIND: solubility (mole fraction)
# output: bare number, no unit

Field solubility (mole fraction) (entry `Nc1n[nH]c(=S)s1` ) reads 0.00259

---

- COND: in methyl acetate, 308.15 K
QUANTITY_KIND: solubility (mole fraction)

Lab note: measured solubility (mole fraction) of `Nc1n[nH]c(=S)s1` was 0.00332

---

- COND: in n-propyl acetate, 288.15 K
QUANTITY_KIND: solubility (mole fraction)
The answer should be written as a number, with no unit following it.

solubility (mole fraction) measured on `Nc1n[nH]c(=S)s1` = 0.00197

---

- COND: in ethyl acetate, 308.15 K
QUANTITY_KIND: solubility (mole fraction)
Just the number, please.

Notebook: `Nc1n[nH]c(=S)s1` , solubility (mole fraction) read as 0.00301

---

- COND: in cyclohexanone, 303.15 K
QUANTITY_KIND: solubility (mole fraction)
Give the figure only, with no unit attached.

Notebook: `Nc1n[nH]c(=S)s1` , solubility (mole fraction) read as 0.0397

---

- COND: in acetone, 318.15 K
QUANTITY_KIND: solubility (mole fraction)
The answer should be a number; do not append a unit.

So for `Nc1n[nH]c(=S)s1` , the logged solubility (mole fraction) turned out to be 0.015

---

- COND: in n-propanol, 303.15 K
QUANTITY_KIND: solubility (mole fraction)
Hey, just send me the number, nothing else.

GET /value?item= `Nc1n[nH]c(=S)s1` &field=solubility (mole fraction) returns 0.00387

---

- COND: in methyl acetate, 288.15 K
QUANTITY_KIND: solubility (mole fraction)
Give the value as a plain number.

The reported solubility (mole fraction) of the compound `Nc1n[nH]c(=S)s1` was 0.00239

---

- COND: in isopropanol, 323.15 K
QUANTITY_KIND: solubility (mole fraction)

The recorded solubility (mole fraction) for `Nc1n[nH]c(=S)s1` is 0.0065

---

- COND: in n-butyl acetate, 308.15 K
QUANTITY_KIND: solubility (mole fraction)
Answer using only a numeral; do not append any unit.

For record `Nc1n[nH]c(=S)s1` the listed solubility (mole fraction) is 0.0024

---

- COND: in n-propyl acetate, 313.15 K
QUANTITY_KIND: solubility (mole fraction)
Keep the answer to the number alone.

Data point: `Nc1n[nH]c(=S)s1` ; solubility (mole fraction) = 0.00278

---

- COND: in ethanol, 313.15 K
QUANTITY_KIND: solubility (mole fraction)
// no unit, no text: just the number

The compound `Nc1n[nH]c(=S)s1` showed solubility (mole fraction) equal to 0.00684
